# TESTED_SYSTEM: SfurOBP11 (Sogatella furcifera)
# Sequence (V5T6E3 entry or part of it): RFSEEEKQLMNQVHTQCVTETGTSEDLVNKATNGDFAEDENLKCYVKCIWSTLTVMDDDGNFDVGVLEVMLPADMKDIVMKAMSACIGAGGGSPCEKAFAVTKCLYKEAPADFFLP
# EXPERIMENT_SUMMARY: biochemical
# Assay type: binding
# ASSAY_CONDITIONS: ligand concentration 18, replicate 3
ASSAY_ENDPOINT: Fluorescence intensity, fluorescence competitive binding assay, OBP11
Just the number.

Incoming: Given the entry CCCCCCCCC=O , report its measured Fluorescence intensity, fluorescence competitive binding assay, OBP11.
Outgoing: 25774

Incoming: Another compound to check: CCCCCCCCCCCCCCCC(=O)OC [MH(methyl hexadecanoate)]
Outgoing: 64769

Incoming: Now the same for C=CC(C)(O)CCC=C(C)CCC=C(C)C (mixture of isomers)
Outgoing: 24479

Incoming: Would you kindly repeat that for c1ccc2ccccc2c1 ?
Outgoing: 24946

Incoming: Repeat for the following compound: CC(=O)c1ccccc1
Outgoing: 21455

Incoming: What do we get for C[C@@H]1CC[C@H]2C(C)(C)[C@H]3C[C@@]12CC[C@@]3(C)O ?
Outgoing: 36646

Incoming: Moving on to the next compound: C=C1CC/C=C(\C)CC[C@@H]2[C@@H]1CC2(C)C
Outgoing: 30235

Incoming: Would you mind doing CCCCCCCCCCCCCC as well?
Outgoing: 33545

Incoming: Try C=C/C(C)=C/C/C=C(\C)CCC=C(C)C next.
Outgoing: 36079

Incoming: Let us now turn to Cc1cc(C(C)(C)C)c(O)c(C(C)(C)C)c1
Outgoing: 15995

Incoming: Item: C=CC(C)(O)CCC=C(C)C (centres unmarked)
Outgoing: 30462

Incoming: And CC(C)COC(=O)CCCCC(=O)OCC(C)C [DA(diisobutyl adipate)] ?
Outgoing: 21849

Incoming: One more compound: CCC/C=C/CO [(E)-2-hexenol]
Outgoing: 20671

Incoming: Now give it for O=Cc1ccccc1 too.
Outgoing: 18463

Incoming: Next compound up: COC(=O)c1ccccc1
Outgoing: 22765

Incoming: What about CCCCCCCCCCOCCCCCCCCCC ?
Outgoing: 75370

Incoming: Likewise for CCCCCCC=CCO ?
Outgoing: 31591

Incoming: Continue with CCCCCCCC=O
Outgoing: 28560

Incoming: Request: O=C(c1ccccc1)c1ccccc1
Outgoing: 16084

Incoming: Here is the next compound: CCCCCCCCCCCCCCCCCC
Outgoing: 26628

Incoming: What about this compound? CCCCCCCC
Outgoing: 26291

Incoming: Same question for CC(=O)/C=C/C1=C(C)CCCC1(C)C please.
Outgoing: 18167

Incoming: Another compound to look at: CCCCCCCCCCCCC=O
Outgoing: 30678
